Data credit: paper PMC4016182

TARGET_UNDER_TEST: LsNAL (Latilactobacillus sakei, UniProt Q38V37)
Sequence (Q38V37 1-305): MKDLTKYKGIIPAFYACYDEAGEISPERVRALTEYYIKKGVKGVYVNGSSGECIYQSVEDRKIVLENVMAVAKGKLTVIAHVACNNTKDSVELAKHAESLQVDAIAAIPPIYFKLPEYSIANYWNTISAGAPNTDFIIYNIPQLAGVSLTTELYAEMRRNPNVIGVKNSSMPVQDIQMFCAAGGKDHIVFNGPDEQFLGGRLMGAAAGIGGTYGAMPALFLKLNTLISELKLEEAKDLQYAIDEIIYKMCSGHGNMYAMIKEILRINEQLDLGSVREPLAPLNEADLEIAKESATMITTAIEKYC
PROPERTY_MEASURED: Ki (µM)

[[record]]
molecule = "CC(=O)C(=O)O [pyruvate]"
property_measured = "Ki"
display_unit = "µM"
quantitative_readout = 400


* * *

TARGET_UNDER_TEST: LaNAL (Limosilactobacillus antri, UniProt C8P490)
Construct: gene FC31_GL000711; N-terminal His-tag (pET-28a), E. coli Rosetta 2; nanA gene printed as 828 bp; homotetramer 140 kDa; EC 4.1.3.3
Sequence (C8P490 1-305): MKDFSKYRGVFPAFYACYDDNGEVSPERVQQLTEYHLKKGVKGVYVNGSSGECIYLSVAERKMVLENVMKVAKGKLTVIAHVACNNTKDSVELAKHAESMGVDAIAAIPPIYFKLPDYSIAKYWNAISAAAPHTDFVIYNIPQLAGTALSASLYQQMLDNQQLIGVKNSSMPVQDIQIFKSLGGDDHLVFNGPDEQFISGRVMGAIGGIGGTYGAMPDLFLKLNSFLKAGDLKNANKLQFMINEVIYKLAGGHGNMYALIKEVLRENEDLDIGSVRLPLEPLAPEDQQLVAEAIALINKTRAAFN
PROCEDURE_DETAILS: NAD+-coupled ManNAc dehydrogenase assay, […] nm
Assay type: biochemical
pKi: −log10 of the molar value.
PROPERTY_MEASURED: pKi

[[record]]
compound = "CC(=O)C(=O)O [pyruvate]"
property_measured = "pKi"
quantitative_readout = 3.80

